# maps each entry to its IC50
- Experimental Target: hENPP2 (UniProtKB/SwissProt Q13822) (Homo sapiens (Human), UniProt Q13822)
- Method Summary: hENPP2 biochemical assay, LPC as substrate
- Condition Label: LPC (palmitoyl 16:0) as substrate

Use these answered entries as a reference point.
{"Smiles": "CCc1nc2ccc(C3CCN(CC(=O)N4CC[C@H](O)C4)CC3)cn2c1N(C)c1nc(-c2ccc(F)cc2)c(C#N)s1", "Measured Metric": "IC50", "Reported Result": "0.01 to 100 nM"}
{"Smiles": "CCc1nc2ccc(N3CCN(CCO)CC3)cn2c1N(C)c1nc(-c2ccc(F)cc2)cs1", "Measured Metric": "IC50", "Reported Result": "> 1000 nM"}
{"Smiles": "CCc1nc2ccc(N3CCN(CC(=O)N4CC(O)C4)CC3)cn2c1N(C)c1nc(-c2ccc(F)cc2)cs1", "Measured Metric": "IC50", "Reported Result": "100 to 500 nM"}

Read the next record carefully.
Query: For the molecule CCc1nc2ccc(N3CCN(CC(=O)O)CC3)cn2c1N(C)c1nc(-c2ccc(F)cc2)cs1 , what IC50 is on record?
Response: > 1000 nM

====

- Experimental Target: hENPP2 (UniProtKB/SwissProt Q13822) (Homo sapiens (Human), UniProt Q13822)
- Method Summary: hENPP2 biochemical assay, LPC as substrate
- Condition Label: LPC (palmitoyl 16:0) as substrate
// IC50 lookup, one value per entry

{"Smiles": "CCc1nc2ccc(C3CCN(S(C)(=O)=O)CC3)cn2c1N(C)c1nc(-c2ccc(F)cc2)c(CO)s1", "Experimental Target": "hENPP2 (UniProtKB/SwissProt Q13822) (Homo sapiens (Human), UniProt Q13822)", "IC50": "100 to 500 nM"}

Query: Quick one: IC50 for CCc1nc2ccc(N3CCN(CC(=O)N4CC(O)C4)CC3)cn2c1N(C)c1nc(-c2ccc(F)cc2)c(C#N)s1 ?
Response: 0.01 to 100 nM

Query: Please give the result for CCc1nc2ccc(C3CCN(CC(=O)N4CC(CO)C4)CC3)cn2c1N(C)c1nc(-c2ccc(F)cc2)cs1 too.
Response: 100 to 500 nM

Query: Queued: CCc1nc2ccc(N3CCN(CCO)CC3)cn2c1N(C)c1nc(-c2ccc(Cl)cc2)cs1
Response: > 1000 nM

Query: Try CCc1nc2ccc(C3CCN(CC(=O)N(C)C)CC3)cn2c1N(C)c1nc(-c2ccc(F)cc2)c(CO)s1 next.
Response: > 1000 nM

Query: Also check CCc1nc2ccc(C3=CCN(S(C)(=O)=O)CC3)cn2c1N(C)c1nc(-c2ccc(F)cc2)c(F)s1
Response: > 1000 nM

Query: Now the molecule CCc1nc2ccc(C3CCN(CC(=O)N(C)C)CC3)cn2c1N(C)c1nc(-c2ccc(F)cc2)cs1
Response: 100 to 500 nM

Query: Next up: CCc1nc2ccc(C3CCN(S(C)(=O)=O)CC3)cn2c1N(C)c1nc(-c2ccc(OC)cc2)cs1
Response: > 1000 nM

Query: Next entry: CCc1nc2ccc(N3CCN(Cc4cnc[nH]4)CC3)cn2c1N(C)c1nc(-c2ccc(F)cc2)cs1
Response: 500 to 1000 nM

====

- Experimental Target: hENPP2 (UniProtKB/SwissProt Q13822) (Homo sapiens (Human), UniProt Q13822)
- Method Summary: hENPP2 biochemical assay, LPC as substrate
- Condition Label: LPC (palmitoyl 16:0) as substrate
Measured Metric: IC50

Query: IC50 lookup needed for CCc1nc2ccc(C3CCN(CC(=O)N4CC(O)C4)CC3)cn2c1N(C)c1nc(-c2ccc(F)cc2C#N)cs1 [Compound 170] , thanks.
Response: 0.01 to 100 nM

====

- Experimental Target: hENPP2 (UniProtKB/SwissProt Q13822) (Homo sapiens (Human), UniProt Q13822)
- Method Summary: hENPP2 biochemical assay, LPC as substrate
- Condition Label: LPC (palmitoyl 16:0) as substrate
- Method: The principle of the assay consists in quantifying the released choline with an enzymatic method using choline oxidase and peroxidase. Choline oxydation by choline oxydase releases betaine and peroxide. The latter is quantified in presence of HRP that converts the peroxide detection agent TOOS and 4-aminoantipyrine into quinoneimine dye. The appearance of quinoneimine dye is measured spectrophotometrically at 555 nm and is proportional to the amount of choline released by ENPP2. […]
pIC50: −log10 of the molar value.
pIC50 values, listed per item

// solved cases for pIC50 follow
{"Smiles": "CCC(=O)N1CCN(c2ccc3nc(CC)c(N(C)c4nc(-c5ccc(F)cc5)cs4)n3c2)CC1", "pIC50": "< 6.00"}
{"Smiles": "CCc1nc2ccc(C3CCN(CC(=O)N4CC[C@H](C#N)C4)CC3)cn2c1N(C)c1nc(-c2ccc(F)cc2)cs1", "pIC50": "6.30 to 7.00"}
{"Smiles": "CCc1nc2ccc(N3CCN(S(=O)(=O)CCCCl)CC3)cn2c1N(C)c1nc(-c2ccc(F)cc2)cs1", "pIC50": "< 6.00"}

Query: Sample CCOC(=O)CN1CCN(c2ccc3nc(CC)c(N(C)c4nc(-c5ccc(F)cc5)cs4)n3c2)CC1 — what was its pIC50?
Response: 6.30 to 7.00

====

- Experimental Target: hENPP2 (UniProtKB/SwissProt Q13822) (Homo sapiens (Human), UniProt Q13822)
- Method Summary: fluorescent hENPP2 biochemical assay, FS-3 as substrate
- Condition Label: read-out: FS3-IC50
- Method: Compound IC50 values are determined in a fluorescent hENPP2 (UniProtKB/SwissProt Sequence ref Q13822) biochemical assay using the fluorogenic autotaxin substrate FS-3 as substrate. FS-3 is a doubly labeled analog of LPC wherein the fluorophore is quenched through intramolecular energy transfer. Without hENPP2, the emission of the probe is quenched. If the substrate is hydrolyzed by hENPP2, the emission of the probe is not quenched anymore resulting in a fluorescence increase. […]
Item-by-item account of IC50

For orientation, consider the following solved cases.
{"Compound": "CCc1nc2ccc(C3CCN(S(C)(=O)=O)CC3)cn2c1N(C)c1nc(-c2ccc(F)cc2)c(C#N)s1 [Compound 136]", "IC50": "0.01 to 100 nM"}
{"Compound": "CCc1nc2ccc(C3CCN(S(C)(=O)=O)CC3)cn2c1N(C)c1nc(-c2ccc(OC)cc2)cs1 [Compound 82]", "IC50": "0.01 to 100 nM"}
{"Compound": "CCc1nc2ccc(N3CCN(C(=O)OC(C)(C)C)CC3)cn2c1N(C)c1nc(-c2ccc(F)cc2)cs1 [Compound 23]", "IC50": "0.01 to 100 nM"}
{"Compound": "CCc1nc2ccc(C3CCN(S(=O)(=O)CCCN4CCCC4)CC3)cn2c1N(C)c1nc(-c2ccc(F)cc2)cs1 [Compound 89]", "IC50": "0.01 to 100 nM"}
{"Compound": "CCc1nc2ccc(C3CCN(CC(=O)NC4CC4)CC3)cn2c1N(C)c1nc(-c2ccc(F)cc2)cs1 [Compound 194]", "IC50": "0.01 to 100 nM"}
{"Compound": "CCc1nc2ccc(C3=CCOCC3)cn2c1N(C)c1nc(-c2ccc(F)cc2)cs1 [Compound 220]", "IC50": "0.01 to 100 nM"}

Here is the next item to consider.
Query: Would you kindly share the measured IC50 for CCc1nc2ccc(N3CCOC3=O)cn2c1N(C)c1nc(-c2ccc(Cl)cc2)cs1 [Compound 206] ?
Response: 0.01 to 100 nM

====

- Experimental Target: hENPP2 (UniProtKB/SwissProt Q13822) (Homo sapiens (Human), UniProt Q13822)
- Method Summary: hENPP2 biochemical assay, LPC as substrate
- Condition Label: LPC (palmitoyl 16:0) as substrate
Measured Metric: IC50

Examples with their reported IC50 follow.
{"Smiles": "CCc1nc2ccc(N3CCN(CC(=O)N4CC[C@@H](O)C4)CC3)cn2c1N(C)c1nc(-c2ccc(F)cc2)cs1", "Experimental Target": "hENPP2 (UniProtKB/SwissProt Q13822) (Homo sapiens (Human), UniProt Q13822)", "IC50": "0.1 to 0.5 µM"}
{"Smiles": "CCc1nc2ccc(C3=CCN(S(C)(=O)=O)C3)cn2c1N(C)c1nc(-c2ccc(Cl)cc2)cs1", "Experimental Target": "hENPP2 (UniProtKB/SwissProt Q13822) (Homo sapiens (Human), UniProt Q13822)", "IC50": "> 1 µM"}

Query: Look up IC50 for this compound: CCc1nc2ccc(C3=CCN(S(C)(=O)=O)CC3)cn2c1N(C)c1nc(-c2ccc(F)cc2)cs1
Response: > 1 µM

Query: # iterate: CCc1nc2ccc(N3CCN(S(C)(=O)=O)CC3=O)cn2c1N(C)c1nc(-c2ccc(F)cc2)cs1
Response: > 1 µM
